Target: KLK7 (kallikrein 7) (Homo sapiens, UniProt P49862 30-253)
Sequence (P49862 30-253): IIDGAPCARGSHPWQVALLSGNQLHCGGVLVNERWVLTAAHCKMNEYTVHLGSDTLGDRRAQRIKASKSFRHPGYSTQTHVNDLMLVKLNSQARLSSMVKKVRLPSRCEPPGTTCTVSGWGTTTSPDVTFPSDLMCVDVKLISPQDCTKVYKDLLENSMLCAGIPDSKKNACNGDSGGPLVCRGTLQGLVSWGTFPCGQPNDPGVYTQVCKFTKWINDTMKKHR
Assay: DRaCALA; Buffer 2; DRaCALA: Buffer 2, 20 mM Tris/HCl pH 7.8, 15 mM NaCl, 50 nM labeled ssDNA, 10 min at 20 C; screening also in Buffer 1 (20 mM Tris/HCl pH 7.8, 150 mM NaCl) and Buffer 3 (20 mM Tris/HCl pH 7.8, 15 mM KCl)
Settings: protein: recombinant; label: 5'-32P
pKd: −log10 of the molar value.

binder	pKd
60 base ssDNA (ssDNA) DNA: GACGGATCGGGAGATCTCCCGATCCCCTATGGTGCACTCTCAGTACAATCTGCTCTGATG	6.09
120 base ssDNA (ssDNA) DNA: GACGGATCGGGAGATCTCCCGATCCCCTATGGTGCACTCTCAGTACAATCTGCTCTGATGCCGCATAGTTAAGCCAGTATCTGCTCCCTGCTTGTGTGTTGGAGGTCGCTGAGTAGTGCG	5.97
GACGGATCGGGAGATCTCCC (ssDNA) [20 base ssDNA]	5.68
